target: human 5-HT4b receptor (Homo sapiens); construct: expressed in transfected cells; host or cells: CHO cells (G418 selection); assay: Test Example 4: Serotonin 4 (5-HT4) receptor agonist activity assay, cAMP HTRF in CHO cells (Table 100); type: cell-based; details: CHO, 0.25 h; intrinsic activity, maximal activity of 5-HT defined as 100%; mean value; read-out: IA (%)
Where a name gives a salt, the structure may show the parent alone.
Readout Name: Emax (%)
// note: answer is a bare numeric in %

// below: answered molecules
{"columns": ["Molecule", "System Under Test", "Readout Name", "Quantitative Result"],
 "data": [
  ["COCC(=O)N1CCC(N2CCC(c3nc(-n4nc(C(C)C)c5cccc(F)c54)no3)CC2)CC1 [Example 233, hydrochloride]", "human 5-HT4b receptor (Homo sapiens)", "Emax", 93.5],
  ["COc1ccc(F)c2c1c(C(C)C)nn2-c1noc(C2CCN(C3CCN(C(C)=O)CC3)CC2)n1 [Example 405]", "human 5-HT4b receptor (Homo sapiens)", "Emax", 21.6],
  ["CC(=O)N1CC[C@H](CN2CC[C@H](Cc3nc(-n4nc(C(C)C)c5cccc(F)c54)no3)C2)C1 [Example 505]", "human 5-HT4b receptor (Homo sapiens)", "Emax", 52],
  ["CC(=O)N1CCC[C@H]1CN1CC[C@H](Cc2nc(-n3nc(C(C)C)c4cccc(F)c43)no2)C1 [Example 497]", "human 5-HT4b receptor (Homo sapiens)", "Emax", 88],
  ["CC(C)c1nn(-c2noc([C@H]3C[C@@H](NCC4CCN(S(C)(=O)=O)CC4)C3)n2)c2c(F)cccc12 [Example 594]", "human 5-HT4b receptor (Homo sapiens)", "Emax", 106],
  ["CC(C)c1nn(-c2noc(C3CCN(C4C5CCC4CN(C(=O)CO)C5)CC3)n2)c2c(F)cccc12 (stereo not drawn) [Example 534]", "human 5-HT4b receptor (Homo sapiens)", "Emax", 104]
]}

Challenge: Bench note: what Emax did CCc1nn(-c2noc(C3CCN(C[C@@H]4CCCN4C(=O)CO)CC3)n2)c2c(F)cccc12 [Example 583] show?
Response given: 84

Challenge: # lookup: Emax of CC(C)c1nn(-c2noc(C3CCN(C[C@@H]4CCN(S(C)(=O)=O)C4)CC3)n2)c2c(F)cccc12 [Example 585]
Response given: 109

Challenge: I'd like to know its Emax. The molecule in question is CC(C)c1nn(-c2noc(C[C@@H]3CCN(C[C@H]4CCCN4S(C)(=O)=O)C3)n2)c2c(F)cccc12 [Example 512]
Response given: 30

Challenge: Record request: Emax value, item CCc1nn(-c2noc(C3CCN(C4CCN(C(=O)OC)CC4)CC3)n2)c2c(F)c(F)ccc12 [Example 459, trifluoroacetate]
Response given: 68.2

Challenge: Consider the molecule shown here: COCC(=O)N1CC(CN2CCC(c3nc(-n4nc(C(C)C)c5cccc(F)c54)no3)CC2)C1 [Example 221, hydrochloride] What is its recorded Emax?
Response given: 86.1

Challenge: What value of Emax has been reported for the following molecule? COCC(=O)N1CCC(C)(N2CCC(c3nc(-n4nc(C(C)C)c5cccc(F)c54)no3)CC2)CC1 [Example 490]
Response given: 111

Challenge: May I ask what Emax has been recorded for CC(C)c1nn(-c2noc(C3CCN(C[C@H]4CCCN4C(=O)CO)CC3)n2)c2c(F)cccc12 [Example 529, hydrochloride] ?
Response given: 95.5

Challenge: I'd like to know its Emax. The molecule in question is CC(=O)N1CCC(N2CCC(F)(c3nc(-n4nc(C(C)C)c5cccc(F)c54)no3)CC2)CC1 [Example 561]
Response given: 109

Challenge: What value of Emax has been reported for the following molecule? CCc1nn(-c2noc(C3CCN(C4(C)CCN(C(=O)N(C)C)CC4)CC3)n2)c2c(F)cccc12 [Example 493]
Response given: 75

Challenge: Which Emax value is on record for CC(C)c1nn(-c2noc([C@H]3CC[C@@H](NCCC4CN(S(C)(=O)=O)C4)CC3)n2)c2c(F)cccc12 [Example 617] ?
Response given: 104

Challenge: Query (molecule): CC(C)c1nn(-c2noc(C3CCN(C4(C)CCN(S(C)(=O)=O)CC4)CC3)n2)c2c(F)cccc12 [Example 488] ; field requested: Emax
Response given: 106

Challenge: Emax lookup needed for CC(C)c1nn(-c2noc(C[C@@H]3CCN(C4CCN(S(C)(=O)=O)CC4)C3)n2)c2c(F)cccc12 [Example 508] , thanks.
Response given: 54

Challenge: Sample CCc1nn(-c2noc(C3CCN(C(C)C)CC3)n2)c2c(F)c(F)ccc12 [Example 445, trifluoroacetate] — what was its Emax?
Response given: 52.1

Challenge: Query (molecule): COCCN(CC1CCCO1)C1CC(c2nc(-n3nc(C(C)C)c4cccc(F)c43)no2)C1 (stereo not drawn) [Example 612] ; field requested: Emax
Response given: 82

---

biological target: human 5-HT4b receptor (Homo sapiens, UniProt Q13639); construct: expressed in transfected cells; host or cells: CHO cells (G418 selection); experiment: Test Example 4: Serotonin 4 (5-HT4) receptor agonist activity assay, cAMP HTRF in CHO cells (Table 100); format: cell-based; details: CHO, 0.25 h; intrinsic activity, maximal activity of 5-HT defined as 100%; mean value; read-out: IA (%)
Sequence (Q13639 whole entry): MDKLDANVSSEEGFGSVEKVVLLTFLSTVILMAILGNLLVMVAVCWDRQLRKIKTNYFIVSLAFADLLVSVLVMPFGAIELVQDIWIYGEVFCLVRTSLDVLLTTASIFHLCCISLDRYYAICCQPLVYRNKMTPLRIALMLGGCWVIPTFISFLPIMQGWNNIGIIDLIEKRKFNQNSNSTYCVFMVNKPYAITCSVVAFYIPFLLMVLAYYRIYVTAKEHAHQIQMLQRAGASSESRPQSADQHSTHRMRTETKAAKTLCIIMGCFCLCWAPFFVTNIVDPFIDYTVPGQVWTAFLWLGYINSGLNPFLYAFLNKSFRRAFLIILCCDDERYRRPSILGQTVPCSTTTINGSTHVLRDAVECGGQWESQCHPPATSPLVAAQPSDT
Structures can show the parent of a compound that is named as a salt.
Readout Name: Emax

Take a look at these entries with their results.
{"columns": ["Compound", "Emax"],
 "data": [
  ["COC(=O)N1CCC(CN2CCC(c3nc(-n4nc(C(C)C)c5ccc(F)c(F)c54)no3)CC2)CC1 [Example 482, trifluoroacetate]", "70.5%"],
  ["CCC(C)c1nn(-c2noc(C3CCN(C4CCN(C(=O)CO)CC4)CC3)n2)c2c(F)cccc12 (stereo not drawn) [Example 528]", "121%"],
  ["CC(=O)NCCCN[C@H]1C[C@@H](c2nc(-n3nc(C(C)C)c4cccc(F)c43)no2)C1 [Example 566]", "90%"],
  ["CC(=O)NCCN(C1CCOCC1)C1CC(c2nc(-n3nc(C(C)C)c4cccc(F)c43)no2)C1 (stereo not drawn) [Example 611]", "94%"],
  ["CC(C)c1nn(-c2noc(C[C@@H]3CCN(C[C@H]4CCCN4C(=O)CO)C3)n2)c2c(F)cccc12 [Example 547]", "54%"],
  ["COCC(=O)N1CCC(CN2CCC(c3nc(-n4nc(C(C)C)c5ccc(F)c(F)c54)no3)CC2)CC1 [Example 481, trifluoroacetate]", "73.8%"],
  ["CCc1nn(-c2noc(C3CCN(CC4CN(C(=O)COC)C4)CC3)n2)c2c(F)c(F)ccc12 [Example 469, trifluoroacetate]", "68.8%"],
  ["CC(C)c1nn(-c2noc(C[C@@H]3CCN(C[C@@H]4CCCN4S(C)(=O)=O)C3)n2)c2c(F)cccc12 [Example 510]", "46%"],
  ["CCc1nn(-c2noc(C3CCN(C[C@@H]4CCN(C(=O)CO)C4)CC3)n2)c2c(F)cccc12 [Example 582]", "91%"],
  ["CC(=O)N1CCC(CN2CCC(c3nc(-n4nc(C(C)C)c5ccccc54)no3)CC2)CC1 [Example 475, trifluoroacetate]", "61%"]
]}

Challenge: For CC(C)c1nn(-c2noc(CCCN3CCCCC3)n2)c2c(F)cccc12 [Example 394] , what is its reported Emax?
Response given: 101%

Challenge: Any idea what its Emax is? The compound is Cc1nn(-c2noc(C3CCN(C4CCN(C(=O)CO)CC4)CC3)n2)c2c(F)cccc12 [Example 525]
Response given: 86%

Challenge: Suppose we examine the compound CCc1nn(-c2noc(C3CCN(CC4CN(C(C)=O)C4)CC3)n2)c2c(F)cccc12 [Example 223, hydrochloride] ; what Emax value has been reported?
Response given: 72.7%

Challenge: Name the reported Emax value associated with the compound CC(C)c1nn(-c2noc(C3CCN([C@H]4C[C@H]5CC[C@@H](C4)N5C(=O)CO)CC3)n2)c2c(F)cccc12 [Example 532]
Response given: 99%

Challenge: What Emax value was documented for this compound, CC(=O)N1CCC(N2CCC(O)(c3nc(-n4nc(C(C)C)c5cccc(F)c54)no3)CC2)CC1 [Example 457] ?
Response given: 72.2%

---

Human 5-HT4 receptor (5-HT4b) (Homo sapiens, UniProt Q13639): reported IC50 for various compounds.
Sequence (Q13639 whole entry): as above

{"columns": ["Compound", "System Under Test", "IC50"],
 "data": [
  ["CC(C)c1nn(-c2noc(C[C@@H]3CCN(C[C@H]4CCN(C(=O)CO)C4)C3)n2)c2c(F)cccc12", "Human 5-HT4 receptor (5-HT4b) (Homo sapiens, UniProt Q13639)", "< 20 nM"],
  ["CC(C)c1nn(-c2noc(C3CCC(NCCC4CCCOC4)CC3)n2)c2c(F)cccc12 (centres unmarked)", "Human 5-HT4 receptor (5-HT4b) (Homo sapiens, UniProt Q13639)", "39.2 nM"],
  ["CC(C)c1nn(-c2noc(C3CC(NC4COC4)C3)n2)c2c(F)cccc12 (centres unmarked)", "Human 5-HT4 receptor (5-HT4b) (Homo sapiens, UniProt Q13639)", "86.7 nM"],
  ["COCCN(CC1CCCO1)C1CC(c2nc(-n3nc(C(C)C)c4cccc(F)c43)no2)C1 (centres unmarked)", "Human 5-HT4 receptor (5-HT4b) (Homo sapiens, UniProt Q13639)", "20.5 nM"],
  ["CC(C)c1nn(-c2noc(C3CC(NC4CCOCC4)C3)n2)c2c(F)cccc12 (centres unmarked)", "Human 5-HT4 receptor (5-HT4b) (Homo sapiens, UniProt Q13639)", "< 20 nM"]
]}

Challenge: For the compound shown here, CC(C)c1nn(-c2noc(C3CCN(C4(C)CCN(C(=O)CO)CC4)CC3)n2)c2c(F)cccc12 , give the reported IC50.
Response given: < 20 nM

Challenge: What value of IC50 has been recorded for this entry: CC(C)c1nn(-c2noc(C3CCN(C4CCN(C(=O)CO)CC4)CC3)n2)c2c(F)cccc12
Response given: < 20 nM

Challenge: So what does the record say about IC50 for CC(=O)N1CCC(C)(N2CCC(c3nc(-n4nc(C(C)C)c5cccc(F)c54)no3)CC2)CC1 ?
Response given: < 20 nM
